Target: PEG-3 (UniProt Q6IN02)
Sequence (Q6IN02 whole entry, looked up): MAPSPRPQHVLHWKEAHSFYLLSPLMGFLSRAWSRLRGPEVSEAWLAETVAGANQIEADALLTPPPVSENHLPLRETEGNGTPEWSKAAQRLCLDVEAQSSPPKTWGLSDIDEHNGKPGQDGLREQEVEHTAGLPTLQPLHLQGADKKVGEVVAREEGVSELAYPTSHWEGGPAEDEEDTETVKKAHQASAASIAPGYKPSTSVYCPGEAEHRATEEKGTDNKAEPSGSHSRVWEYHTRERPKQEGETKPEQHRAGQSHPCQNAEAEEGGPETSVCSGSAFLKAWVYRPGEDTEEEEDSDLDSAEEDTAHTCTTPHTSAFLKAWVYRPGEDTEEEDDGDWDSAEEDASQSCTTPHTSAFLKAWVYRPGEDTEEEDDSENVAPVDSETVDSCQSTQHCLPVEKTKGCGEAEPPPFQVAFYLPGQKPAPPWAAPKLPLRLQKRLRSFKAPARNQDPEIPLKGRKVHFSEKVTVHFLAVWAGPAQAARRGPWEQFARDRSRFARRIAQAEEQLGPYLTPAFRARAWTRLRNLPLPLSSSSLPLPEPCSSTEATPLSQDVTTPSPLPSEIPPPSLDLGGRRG
Assay: Peg3 promoter luciferase inhibitors, potency, dose response, cell-based, HeLa, CREF/GAPDH counter-screen panel (AID 624167)
Conditions: HeLa PEG-Prom luciferase reporter, overnight, CREF/GAPDH counter-screens, mean of runs
The source made the active and inactive calls.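 The calls were made as follows: active = mean IC50 for reducing PEG3 promoter reporter signal at or below a set limit, with IC50 above the limit in both counter screens; inactive = the rest, including counter screen hits.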
Choose one outcome from this list and give only that: 1.0 (active), 0.0 (inactive)

Ask: Which outcome did this test record for the molecule Cc1cc2c(c(/C=C/C(=O)c3ccccc3)c1)OC1(C=C2)Oc2ccccc2C(=O)N1C (stereo not drawn) ?
Reply: 1.0

Ask: Which outcome did this test record for the molecule CCOC(=O)c1ccc2ncc(C(=O)OCC)c(NCCN(C)C)c2c1 ?
Reply: 0.0

Ask: Which outcome did this test record for the molecule CC(C)(C)c1ccc(Oc2ccc(N)cc2)cc1 ?
Reply: 1.0

Ask: Which outcome did this test record for the molecule Cc1ccccc1CN1Cc2cnnn2-c2ccccc2C1C#N (stereo not drawn) ?
Reply: 1.0

Ask: Which outcome did this test record for the molecule Cn1nnnc1Sc1ncnc2scc(-c3ccsc3)c12 ?
Reply: 1.0

Ask: Which outcome did this test record for the molecule O=C(CCl)N1N=C(c2ccco2)CC1c1cccs1 (stereo not drawn) ?
Reply: 0.0

Ask: Which outcome did this test record for the molecule O=C(N/N=C/c1cccs1)c1n[nH]c2c1CCCC2 ?
Reply: 1.0

Ask: Which outcome did this test record for the molecule COc1ccc(/C=N/Nc2nncc3ccccc23)cc1 ?
Reply: 1.0

Ask: Which outcome did this test record for the molecule CNC[C@H](CC1CCCCC1)NC[C@H](NCCC1CCCC1)[C@H](C)O ?
Reply: 0.0

Ask: Which outcome did this test record for the molecule Cc1ccc(-c2nnc(SCC(=O)Nc3ccccc3F)o2)cc1 ?
Reply: 1.0

Ask: Which outcome did this test record for the molecule COCC(C)n1c(C)cc(C(=O)COC(=O)c2cccn2C)c1C (stereo not drawn) ?
Reply: 0.0

Ask: Which outcome did this test record for the molecule O=c1c2c3c(sc2nc(N2CCNCC2)n1CCc1ccccc1)CCCCC3 ?
Reply: 0.0

Ask: Which outcome did this test record for the molecule CN(CCOc1ccc(Cl)cc1)C(=O)c1cc(-c2ccco2)nc2ccccc12 ?
Reply: 1.0

Ask: Which outcome did this test record for the molecule CCCn1c(C)cc(C(=O)CN2C(=O)c3ccccc3S2(=O)=O)c1C ?
Reply: 1.0

Ask: Which outcome did this test record for the molecule Cc1cc(C(=O)COC(=O)c2ccccc2Br)c(C)n1CC1CCCO1 (stereo not drawn) ?
Reply: 0.0

Ask: Which outcome did this test record for the molecule CC(=O)NC(c1ccc(C)cc1)c1cc(Cl)c2cccnc2c1O (stereo not drawn) ?
Reply: 0.0

Ask: Which outcome did this test record for the molecule NS(=O)(=O)c1ccc(CCNc2nn3c(-c4ccc(F)c(Cl)c4)cnc3s2)cc1 ?
Reply: 1.0

Ask: Which outcome did this test record for the molecule CCCOc1ccc2cc(-c3ccccn3)c(=O)oc2c1 ?
Reply: 1.0

Ask: Which outcome did this test record for the molecule CNCC[C@H](Oc1cccc2ccccc12)c1cccs1 ?
Reply: 1.0

Ask: Which outcome did this test record for the molecule COc1cccc2c1C(=N)c1c(O)c3c(c(O)c1C2=O)CC(O)(C(C)=O)CC3OC1CC(N)C(O)C(C)O1 (stereo not drawn) ?
Reply: 1.0

Ask: Which outcome did this test record for the molecule Cc1csc(NC(=O)c2ccc(N3CCCC3=O)cc2)n1 ?
Reply: 1.0

Ask: Which outcome did this test record for the molecule C=Cc1cc(OC)c2c(c1)c(=O)oc1c2cc(OC)c2c(O)ccc(C3OC(C)C(O)C(C)(O)C3O)c21 (stereo not drawn) ?
Reply: 1.0

Ask: Which outcome did this test record for the molecule Cc1cc(C)c2nc(N(CCCN(C)C)C(=O)c3ccc(S(=O)(=O)N4CCCCCC4)cc3)sc2c1 ?
Reply: 1.0
